# System: Staphylococcus aureus
# Test Description: Inhibition of pigmentation in methicillin-resistant Staphylococcus aureus USA400 MW2 after 48 hrs by spectrophotometric method
# Format: functional, organism-based
# Recorded Conditions: USA400 MW2, 48 h
Measure Name: pIC50
By convention, pIC50 is the negative base-10 log of a molar concentration.

So what does the record say about pIC50 for `CN(C/C=C/C=C/c1ccc(C(F)(F)F)cc1F)Cc1ccc2c(c1)OCO2.Cl` ?
8.12

----------
# Target Under Test: 4,4'-diapophytoene desaturase (4,4'-diaponeurosporene-forming) (Staphylococcus aureus (strain Newman))
# Test Description: Inhibition of Staphylococcus aureus Newman 6His-tagged CrtN expressed in Escherichia coli BL21(DE3) assessed as 4,4'-diapophytoene accumulation
Measure Name: pIC50
By convention, pIC50 is the negative base-10 log of a molar concentration.

So what does the record say about pIC50 for `CN(C/C=C/C=C/c1ccc(C(F)(F)F)cc1F)Cc1ccc2c(c1)OCO2.Cl` ?
6.39
